- assay-explanation: Selectivity index, ratio of IC50 for human HEK293 cells to IC50 for Plasmodium falciparum 3D7
recorded-endpoint: SI
Please reply with the number alone, leaving off any unit.

The examples below pair each entry with its known result.
[[record]]
compound = "CCN(CC)CCCC(C)Nc1ccnc2cc(Cl)ccc12 (centres undefined) [CHLOROQUINE]"
test_result = 600

[[record]]
compound = "O=C1C=CC(O)(/C=C/C(=O)OC[C@H]2O[C@@H](Oc3ccc(O)cc3)[C@H](O)[C@@H](O)[C@@H]2O)C=C1 [ROBUSTASIDE D]"
test_result = 33


Could you now look at the following compound, please?
So what's the measured SI for this one? C[C@H]1[C@H](OC(=O)CCC(=O)O)O[C@@H]2O[C@@]3(C)CC[C@H]4[C@H](C)CC[C@@H]1[C@@]24OO3 [ARTESUNATE] 150

---

# pIC50 per entry
- Test system: HEK293
- assay-explanation: Cytotoxicity against human HEK293 cells after 72 hrs by alamar blue assay
- Type: cell-based
- reported-conditions: HEK293, 72 h
A value of pIC50 is the negative decimal logarithm of a concentration given in moles per litre.

The examples below pair each entry with its known result.
[[record]]
molecule = "C[C@H]1[C@H](OC(=O)CCC(=O)O)O[C@@H]2O[C@@]3(C)CC[C@H]4[C@H](C)CC[C@@H]1[C@@]24OO3 [ARTESUNATE]"
recorded_endpoint = "pIC50"
test_result = 5.54

[[record]]
molecule = "CCN(CC)CCCC(C)Nc1ccnc2cc(Cl)ccc12 (centres undefined) [CHLOROQUINE]"
recorded_endpoint = "pIC50"
test_result = 4.92


Could you now look at the following molecule, please?
# returns recorded pIC50 (system: HEK293) for O=C1C=CC(O)(/C=C/C(=O)OC[C@H]2O[C@@H](Oc3ccc(O)cc3)[C@H](O)[C@@H](O)[C@@H]2O)C=C1 [ROBUSTASIDE D] 3.71

---

- assay-explanation: Selectivity index, ratio of IC50 for human HepG2 cells to IC50 for Plasmodium falciparum 3D7
recorded-endpoint: SI
Please reply with the number alone, leaving off any unit.

So what's the measured SI for this one? CCN(CC)CCCC(C)Nc1ccnc2cc(Cl)ccc12 (centres undefined) [CHLOROQUINE] 415

So what's the measured SI for this one? O=C1C=CC(O)(/C=C/C(=O)OC[C@H]2O[C@@H](Oc3ccc(O)cc3)[C@H](O)[C@@H](O)[C@@H]2O)C=C1 [ROBUSTASIDE D] 37

So what's the measured SI for this one? C[C@H]1[C@H](OC(=O)CCC(=O)O)O[C@@H]2O[C@@]3(C)CC[C@H]4[C@H](C)CC[C@@H]1[C@@]24OO3 [ARTESUNATE] 374

---

- Tested on: HepG2
- assay-explanation: Cytotoxicity against human HepG2 cells after 72 hrs by alamar blue assay
- Assay type: cell-based
- reported-conditions: HepG2, 72 h
recorded-endpoint: pIC50
A value of pIC50 is the negative decimal logarithm of a concentration given in moles per litre.

The examples below pair each entry with its known result.
[[record]]
compound = "CCN(CC)CCCC(C)Nc1ccnc2cc(Cl)ccc12 (centres undefined)"
system_tested = "HepG2"
recorded_endpoint = "pIC50"
test_result = 5.08

[[record]]
compound = "C[C@H]1[C@H](OC(=O)CCC(=O)O)O[C@@H]2O[C@@]3(C)CC[C@H]4[C@H](C)CC[C@@H]1[C@@]24OO3 [ARTESUNATE]"
system_tested = "HepG2"
recorded_endpoint = "pIC50"
test_result = 4.90


Could you now look at the following compound, please?
So what's the measured pIC50 for this one? O=C1C=CC(O)(/C=C/C(=O)OC[C@H]2O[C@@H](Oc3ccc(O)cc3)[C@H](O)[C@@H](O)[C@@H]2O)C=C1 [ROBUSTASIDE D] 3.66
